# Procedure Text: Cytotoxicity against human HSF cells assessed as growth inhibition at 0.32 mM after 72 hrs by spectrophotometer using BrdU labeling
# Type: cell-based
# Details: read-out: GI
Metric: inhibition at 72 h, 320 µM (%)
All answers are understood in %, so give the number only.

So for `CCSc1n[nH]c(/C=C\C(=O)Nc2ccccc2Cl)n1` , the logged inhibition at 72 h, 320 µM turned out to be 75

###

# Procedure Text: Cytotoxicity against human HSF cells assessed as growth inhibition at 0.03 mM after 72 hrs by spectrophotometer using BrdU labeling
# Type: cell-based
# Details: read-out: GI
As shown below, each of these compounds has a reported inhibition at 72 h, 30 µM value.
All answers are understood in %, so give the number only.

CCSc1n[nH]c(/C=C\C(=O)Nc2ccccc2Cl)n1    5
CCSc1n[nH]c(/C=C\C(=O)Nc2ccc(Br)cc2)n1    0

Consider now this further compound.
So for `CCSc1n[nH]c(/C=C\C(=O)Nc2cccc(C)c2)n1` , the logged inhibition at 72 h, 30 µM turned out to be 0

All values here come from ChEMBL document CHEMBL1153775.
